Target: EGFR(D770_N771insSVD) expressing Ba/F3 stable cell line (Homo sapiens, UniProt P00533, DUP768-770, cells depend on it)
Sequence (P00533 with tags, fused parts or gaps DUP768-770): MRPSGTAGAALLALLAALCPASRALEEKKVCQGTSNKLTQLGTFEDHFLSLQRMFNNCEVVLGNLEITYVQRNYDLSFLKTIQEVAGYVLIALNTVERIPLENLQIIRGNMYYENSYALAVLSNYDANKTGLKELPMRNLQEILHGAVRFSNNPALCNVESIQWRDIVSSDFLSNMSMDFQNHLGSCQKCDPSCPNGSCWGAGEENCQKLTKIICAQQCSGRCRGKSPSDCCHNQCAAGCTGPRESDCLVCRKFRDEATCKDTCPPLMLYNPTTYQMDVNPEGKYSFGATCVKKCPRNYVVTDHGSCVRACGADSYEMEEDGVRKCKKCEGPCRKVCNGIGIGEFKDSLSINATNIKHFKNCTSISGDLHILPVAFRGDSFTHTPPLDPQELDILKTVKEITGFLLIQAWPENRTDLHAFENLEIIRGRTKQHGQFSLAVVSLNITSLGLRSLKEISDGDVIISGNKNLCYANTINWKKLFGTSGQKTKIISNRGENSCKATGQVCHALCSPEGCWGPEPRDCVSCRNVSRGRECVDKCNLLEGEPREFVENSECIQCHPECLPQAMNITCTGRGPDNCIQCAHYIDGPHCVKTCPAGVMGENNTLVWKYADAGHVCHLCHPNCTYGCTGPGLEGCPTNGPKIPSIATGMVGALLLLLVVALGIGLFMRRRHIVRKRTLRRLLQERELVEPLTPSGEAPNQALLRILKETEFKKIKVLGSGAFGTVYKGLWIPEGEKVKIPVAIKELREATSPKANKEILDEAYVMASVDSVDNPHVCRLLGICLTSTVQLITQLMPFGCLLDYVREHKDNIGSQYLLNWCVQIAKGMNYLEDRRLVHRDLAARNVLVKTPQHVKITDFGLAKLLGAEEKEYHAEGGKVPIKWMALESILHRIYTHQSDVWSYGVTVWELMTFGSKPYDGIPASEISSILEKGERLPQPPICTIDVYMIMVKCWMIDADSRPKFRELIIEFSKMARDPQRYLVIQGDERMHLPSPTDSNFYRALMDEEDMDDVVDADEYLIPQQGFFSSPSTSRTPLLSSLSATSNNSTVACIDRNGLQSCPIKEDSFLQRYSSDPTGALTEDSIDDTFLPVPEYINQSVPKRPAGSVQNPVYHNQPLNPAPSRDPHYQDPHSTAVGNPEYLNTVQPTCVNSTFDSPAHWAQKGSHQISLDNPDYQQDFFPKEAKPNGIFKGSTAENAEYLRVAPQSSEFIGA
Test: Cellular proliferation (Alamar Blue) assay, EGFR D770_N771insSVD Ba/F3
Type: cell-based
Conditions: 72 hr, read-out: D770 IC50
Counter-ions that a name gives are not always drawn.
// classify: if (GI50 < 100 nM) met else not met

molecule	qualitative label
C=CC(=O)Nc1cc(F)cc(Nc2nc(Nc3cnn(C)c3)ncc2-c2ccc(Br)cc2)c1 [Compound 207]	met
C=CC(=O)Nc1ccc(F)c(Nc2nc(Nc3cn(C)cn3)ncc2-c2ccc(C(F)(F)F)cc2)c1 [Compound 214]	not met
C=CC(=O)Nc1ccc(F)c(Nc2nc(Nc3cnn(C)c3)cnc2Cl)c1 [Compound 153]	not met
C=CC(=O)Nc1ccc(F)c(Nc2nc(Nc3cnn(C)c3)ncc2C#CC2CC2)c1 [Compound 244]	not met
CN(C)C/C=C/C(=O)Nc1cccc(Nc2nc(Nc3cn(C)nc3Cl)ncc2C(F)(F)F)c1 [Compound 54]	not met
C=CC(=O)Nc1ccc(F)c(Nc2nc(Nc3cnn(C)c3)ncc2-c2ccc(C(F)(F)F)cc2)c1 [Compound 243]	met
C=CC(=O)Nc1ccc(F)c(Nc2nc(Nc3cnn(CCO)c3)ncc2-c2ccc(Br)cc2)c1 [Compound 206]	met
C=CC(=O)Nc1ccc(F)c(Nc2nc(Nc3cnn(C)c3)ncc2C(=O)N(C)c2ccccc2)c1 [Compound 49]	not met
C=CC(=O)Nc1cccc(Oc2nc(Nc3cnn(C)c3)ncc2C2=CCN(C)CC2)c1 [Compound 190]	not met
C/C=C/C(=O)Nc1ccc(F)c(Nc2nc(Nc3cnn(C)c3)ncc2Cl)c1 [Compound 11]	not met
C=CC(=O)Nc1cccc(Oc2cc(Nc3cnn(C)c3)ncc2-c2ccc(C(F)(F)F)cc2)c1 [Compound 182, trifluoroacetic acid]	not met
C=CC(=O)Nc1ccc(F)c(Nc2nc(Nc3cnn(C)c3)ncc2-c2ccc(C(F)F)nc2)c1 [Compound 106]	met
C=CC(=O)Nc1ccc(F)c(Nc2nc(Nc3cnn(C)c3)ncc2N2CCOCC2)c1 [Compound 222]	not met
C=CC(=O)Nc1ccc(F)c(Nc2nc(Nc3cnn(C)c3)ncc2-c2ccc(C(F)(F)F)nc2)c1 [Compound 57]	met
C=CC(=O)Nc1ccc(F)c(Nc2nc(Nc3cnn(C(C)(C)C#N)c3)ncc2-c2ccc(C(F)(F)F)cc2)c1 [Compound 246]	not met
C=CC(=O)Nc1ccc(F)c(Nc2nc(Nc3cnn(C)c3)ncc2-c2cncc(F)c2)c1 [Compound 69]	met
C=CC(=O)Nc1ccc(F)c(Nc2nc(Nc3cnn(C)c3)ncc2-c2ccc(N(C)C)cc2)c1 [Compound 103]	not met
C=CC(=O)Nc1ccc(F)c(Nc2nc(Nc3cnn(C)c3)ncc2-c2ccc(OC(F)F)cc2)c1 [Compound 140]	met
C=C=CC(=O)Nc1ccc(F)c(Nc2nc(Nc3cnn(C)c3)ncc2-c2ccc(C(F)(F)F)cc2)c1 [Compound 251]	not met
C=CC(=O)Nc1ccc(Cl)c(Nc2nc(Nc3cnn(C)c3)ncc2Cl)c1 [Compound 8]	not met
C=CC(=O)Nc1ccc(F)c(Nc2nc(Nc3ccccc3Cl)ncc2-c2ccc(C(F)(F)F)cc2)c1 [Compound 40, trifluoroacetate]	not met
C=CC(=O)Nc1ccc(F)c(Nc2nc(Nc3cnn(C)c3)ncc2-c2cccc(NC(C)=O)c2)c1 [Compound 59]	not met
C=CC(=O)Nc1cccc(Nc2nc(Nc3cnn(C)c3)ncc2C(C)N(Cc2ccccc2)C(C)=O)c1 (stereo not drawn) [Compound 47]	not met
C=CC(=O)Nc1cccc(Nc2nc(Nc3cnn(C)c3)ncc2NS(=O)(=O)c2ccccc2)c1 [Compound 29]	not met
C=CC(=O)Nc1ccc(F)c(Nc2nc(Nc3cnn(C)c3)ncc2-c2ccc(OC)nc2)c1 [Compound 86]	met

---

compounds and their reported GI50
Target: EGFR (H773insNPH) expressing Ba/F3 stable cell line (Homo sapiens, UniProt P00533, DUP771-773, cells depend on it)
Sequence (P00533 with tags, fused parts or gaps DUP771-773): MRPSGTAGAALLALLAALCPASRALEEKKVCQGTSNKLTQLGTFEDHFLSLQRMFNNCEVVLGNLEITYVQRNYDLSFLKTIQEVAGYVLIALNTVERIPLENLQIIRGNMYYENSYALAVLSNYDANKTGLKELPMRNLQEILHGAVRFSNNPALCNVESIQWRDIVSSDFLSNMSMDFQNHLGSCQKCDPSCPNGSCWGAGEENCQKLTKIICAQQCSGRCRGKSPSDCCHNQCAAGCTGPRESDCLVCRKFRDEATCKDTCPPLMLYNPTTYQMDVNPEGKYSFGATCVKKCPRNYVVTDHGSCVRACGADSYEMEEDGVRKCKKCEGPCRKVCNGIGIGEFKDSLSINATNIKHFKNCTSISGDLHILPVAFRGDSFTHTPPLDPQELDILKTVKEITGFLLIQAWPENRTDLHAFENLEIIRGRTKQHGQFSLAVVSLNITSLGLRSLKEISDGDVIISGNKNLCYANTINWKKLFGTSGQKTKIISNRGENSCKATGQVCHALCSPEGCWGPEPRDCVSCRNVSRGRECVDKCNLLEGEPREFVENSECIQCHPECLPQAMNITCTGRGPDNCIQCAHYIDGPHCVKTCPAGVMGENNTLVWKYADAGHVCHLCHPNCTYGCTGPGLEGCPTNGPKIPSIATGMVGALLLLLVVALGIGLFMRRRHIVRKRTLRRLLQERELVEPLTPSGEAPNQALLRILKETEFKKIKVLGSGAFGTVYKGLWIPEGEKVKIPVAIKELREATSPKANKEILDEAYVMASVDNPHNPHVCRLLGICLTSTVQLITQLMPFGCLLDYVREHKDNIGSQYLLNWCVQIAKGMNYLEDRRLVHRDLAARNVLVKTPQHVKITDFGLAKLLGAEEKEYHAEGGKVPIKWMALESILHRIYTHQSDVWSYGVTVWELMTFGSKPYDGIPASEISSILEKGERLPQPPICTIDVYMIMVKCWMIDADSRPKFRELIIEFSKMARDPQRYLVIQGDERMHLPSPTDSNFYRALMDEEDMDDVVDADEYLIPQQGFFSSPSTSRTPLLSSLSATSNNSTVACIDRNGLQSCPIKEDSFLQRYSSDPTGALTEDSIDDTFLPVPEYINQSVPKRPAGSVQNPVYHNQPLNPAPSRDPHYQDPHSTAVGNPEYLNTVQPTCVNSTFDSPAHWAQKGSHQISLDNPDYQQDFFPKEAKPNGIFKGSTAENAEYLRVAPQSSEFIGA
Assay: Cellular proliferation (Alamar Blue) assay, EGFR H773insNPH Ba/F3
Assay type: cell-based
Conditions: 72 hr, read-out: NPH IC50

compound	GI50, nM
C=CC(=O)Nc1cccc(Oc2nc(Nc3cn(C)nc3Cl)ncc2-c2ccc(C(F)(F)F)cc2)c1	385
C=CC(=O)Nc1ccc(F)c(Nc2nc(Nc3cnn(C)c3)ncc2-c2ccc(C)nc2)c1	73
C=CC(=O)Nc1ccc(F)c(Nc2nc(Nc3cnn(C)c3)ncc2-c2ccc(C(F)(F)F)cc2)c1 [Compound 37]	85
C=CC(=O)Nc1ccc(F)c(Nc2nc(Nc3cnn(C)c3)ncc2-c2ccc(C(F)(F)F)cc2)c1 [Compound 243]	121

---

Target: HER2 (A775_G776insYVMA) expressing Ba/F3 stable cell line (Homo sapiens, UniProt P04626, DUP772-775, cells depend on it)
Sequence (P04626 with tags, fused parts or gaps DUP772-775): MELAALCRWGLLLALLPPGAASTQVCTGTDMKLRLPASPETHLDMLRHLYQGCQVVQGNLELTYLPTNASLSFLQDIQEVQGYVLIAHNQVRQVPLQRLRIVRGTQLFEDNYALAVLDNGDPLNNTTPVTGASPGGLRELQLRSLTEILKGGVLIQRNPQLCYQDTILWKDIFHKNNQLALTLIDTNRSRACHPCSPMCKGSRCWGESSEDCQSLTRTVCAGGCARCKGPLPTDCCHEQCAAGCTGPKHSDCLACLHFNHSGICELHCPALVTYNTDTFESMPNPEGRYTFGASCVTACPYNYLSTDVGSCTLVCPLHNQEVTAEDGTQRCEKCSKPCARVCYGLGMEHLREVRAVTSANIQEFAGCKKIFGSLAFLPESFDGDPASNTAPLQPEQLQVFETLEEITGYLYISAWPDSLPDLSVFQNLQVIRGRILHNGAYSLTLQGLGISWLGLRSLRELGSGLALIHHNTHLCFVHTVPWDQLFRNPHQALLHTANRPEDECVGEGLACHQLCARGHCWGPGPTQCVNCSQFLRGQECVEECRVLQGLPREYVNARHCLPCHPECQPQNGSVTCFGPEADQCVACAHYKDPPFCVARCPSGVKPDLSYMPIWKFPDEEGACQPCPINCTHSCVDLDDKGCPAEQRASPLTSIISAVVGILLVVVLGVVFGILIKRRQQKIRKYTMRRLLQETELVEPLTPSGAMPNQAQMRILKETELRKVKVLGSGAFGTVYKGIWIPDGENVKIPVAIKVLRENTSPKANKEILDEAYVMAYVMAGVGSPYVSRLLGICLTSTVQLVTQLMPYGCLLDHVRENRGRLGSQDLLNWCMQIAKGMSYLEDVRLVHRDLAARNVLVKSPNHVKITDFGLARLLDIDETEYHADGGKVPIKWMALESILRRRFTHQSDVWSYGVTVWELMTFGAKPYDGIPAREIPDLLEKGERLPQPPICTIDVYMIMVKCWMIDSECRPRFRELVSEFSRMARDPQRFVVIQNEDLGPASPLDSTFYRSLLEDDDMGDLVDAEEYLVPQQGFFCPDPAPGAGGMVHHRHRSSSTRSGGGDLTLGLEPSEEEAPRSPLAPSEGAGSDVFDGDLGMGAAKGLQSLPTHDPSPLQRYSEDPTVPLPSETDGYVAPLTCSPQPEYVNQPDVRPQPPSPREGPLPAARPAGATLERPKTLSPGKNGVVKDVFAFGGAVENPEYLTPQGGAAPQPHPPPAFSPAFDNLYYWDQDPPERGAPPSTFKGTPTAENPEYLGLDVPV
Assay: Cellular proliferation (Alamar Blue) assay, HER2 A775_G776insYVMA Ba/F3
Format: cell-based
Conditions: 72 hr, read-out: YVMA IC50
Where a name gives a salt, the structure may show the parent alone.
# key: entry, value: log10 of GI50
experimental endpoint: log10 of GI50 (log10 of the value in nM)

molecule	experimental endpoint	measured number
C=CC(=O)Nc1ccc(F)c(Nc2nc(Nc3cnn(C)c3)ncc2-c2ccc(CC(F)(F)F)cc2)c1 [Compound 130, trifluoroacetate]	log10 of GI50	1.92
C=CC(=O)Nc1cccc(Oc2nc(Nc3cnn(C)c3)nnc2Cl)c1 [Compound 157]	log10 of GI50	3.56
C=CC(=O)Nc1cccc(Nc2nc(Nc3cnn(C)c3)ncc2F)c1 [Compound 280]	log10 of GI50	3.71
C=CC(=O)Nc1ccc(F)c(Nc2nc(Nc3cnn(C)c3)ncc2-c2ccc(C(F)F)cc2)c1 [Compound 99]	log10 of GI50	2.23
C=CC(=O)Nc1cccc(Nc2nc(Nc3cnn(C)c3)ncc2NCc2ccccc2)c1 [Compound 32]	log10 of GI50	3.21
C=CC(=O)Nc1ccc(F)c(Oc2nc(Nc3cnn(C4CCN(C)CC4)c3)ncc2Cl)c1 [Compound 168]	log10 of GI50	3.35
C=CC(=O)Nc1ccc(F)c(Nc2nc(Nc3cnn(C)c3)ncc2-c2ccc(N3CCOCC3)nc2)c1 [Compound 55]	log10 of GI50	3.27
C=CC(=O)Nc1ccc(F)c(Nc2nc(Nc3cnn(C)c3)ncc2-c2ccc(OC)cc2)c1 [Compound 91]	log10 of GI50	2.68
C=CC(=O)Nc1ccc(F)c(Nc2nc(Nc3cnn(C)c3)ncc2-c2ccccc2Cl)c1 [Compound 150, 2,2,2-trifluoroacetate]	log10 of GI50	3.26
CN(C)C/C=C/C(=O)Nc1cccc(Nc2nc(Nc3cnn(C)c3)ncc2CNc2ccccc2)c1 [Compound 17]	log10 of GI50	3.27

---

Target: EGFR(D770_N771insSVD) expressing Ba/F3 stable cell line (Homo sapiens, UniProt P00533, DUP768-770, cells depend on it)
Test: Cellular proliferation (Alamar Blue) assay, EGFR D770_N771insSVD Ba/F3
Assay type: cell-based
Settings: 72 hr, read-out: D770 IC50
experimental endpoint: GI50

compound	result
C=CC(=O)Nc1ccc(Cl)c(Nc2ccnc(Nc3cnn(C)c3)n2)c1 [Compound 165]	> 10 µM
C=CC(=O)Nc1ccc(C(F)(F)F)c(Oc2nc(Nc3cnn(C)c3)ncc2Cl)c1 [Compound 169]	> 10 µM
C=CC(=O)Nc1ccc(OC)c(Oc2nc(Nc3cnn(C)c3)ncc2Cl)c1 [Compound 172]	> 10 µM

---

Biological target: EGFR(D770_N771insSVD) expressing Ba/F3 stable cell line (Homo sapiens, UniProt P00533, DUP768-770, cells depend on it)
Assay: Cellular proliferation (Alamar Blue) assay, EGFR D770_N771insSVD Ba/F3
Type: cell-based
Conditions: 72 hr, read-out: D770 IC50

compound	GI50
C=CC(=O)Nc1ccc(F)c(Nc2nc(Nc3cnn(C)c3)ncc2-c2cccc(N(C)CCN(C)C)c2)c1	> 10 µM
C=CC(=O)Nc1ccc(F)c(Nc2nc(Nc3cnn(C)c3)ncc2C2CCN(C)C2)c1 (centres unmarked)	> 10 µM
CC(NC(=O)c1cnc(Nc2cnn(C)c2)nc1Nc1cccc(NC(=O)/C=C/CN(C)C)c1)c1ccccc1 (centres unmarked)	> 10 µM
C=CC(=O)Nc1ccc(F)c(Nc2nc(Nc3ccc(=O)[nH]c3)ncc2Cl)c1	9.24 µM
C=CC(=O)Nc1ccc(F)c(Nc2nc(NC3CCC3)ncc2-c2ccc(C(F)(F)F)cc2)c1	> 10 µM

---

Biological target: EGFR (H773insNPH) expressing Ba/F3 stable cell line (Homo sapiens, UniProt P00533, DUP771-773, cells depend on it)
Assay: Cellular proliferation (Alamar Blue) assay, EGFR H773insNPH Ba/F3
Type: cell-based
Details: 72 hr, read-out: NPH IC50
Counter-ions that a name gives are not always drawn.
Property: GI50; scope: individual compounds

compound	operator	GI50 / nM
COc1cc(N2CCCCC2)ccc1Nc1ncc(C(=O)N(C)c2ccccc2)c(Nc2cccc(NC(=O)/C=C/CN(C)C)c2)n1	>	10000
C=CC(=O)Nc1ccc(F)c(Nc2nc(Nc3cn(C)nc3C)ncc2-c2ccc(C(F)(F)F)cc2)c1 [Compound 135, trifluoroacetate]	=	235
[2H]C([2H])([2H])n1cc(Nc2ncc(-c3ccc(C(F)(F)F)cc3)c(Nc3cc(NC(=O)C=C)ccc3F)n2)cn1	=	101
C=CC(=O)Nc1ccc(F)c(Nc2nc(Nc3cnn(C)c3)ncc2-c2ccc3nccn3c2)c1 [Compound 133, trifluoroacetate]	=	323
C=CC(=O)Nc1cccc(Oc2nc(Nc3cnn(C)c3)ncc2-c2ccc(C)nc2)c1	=	106
C=CC(=O)Nc1ccc(F)c(Nc2nc(Nc3cnn(C)c3)ncc2-c2ccc(C(F)F)cc2)c1	=	75
C=CC(=O)Nc1cccc(Nc2nc(Nc3cnn(C)c3)ncc2-c2ccc(C(F)(F)F)nc2)c1	=	100
C=C(F)C(=O)N1CCCC(Nc2nc(Nc3cnn(C)c3)ncc2Cl)C1 (stereo not shown)	>	10000
C=CC(=O)Nc1ccc(F)c(Nc2nc(Nc3cnn(C)c3)ncc2-c2ccnc(Cl)c2)c1	=	107
C=CC(=O)Nc1ccc(F)c(Nc2nc(Nc3cnn(CCO)c3)ncc2-c2ccc(C(F)(F)F)cc2)c1	=	53
